Where these numbers come from: patent US11634417B2

Molecular target: full-length SHP2 (Homo sapiens)
Construct: 1 nM full-length SHP2 (His6-tagged SHP2(2-527), recombinantly expressed in E. coli and purified in-house); His6
Sequence (Q06124 2-527): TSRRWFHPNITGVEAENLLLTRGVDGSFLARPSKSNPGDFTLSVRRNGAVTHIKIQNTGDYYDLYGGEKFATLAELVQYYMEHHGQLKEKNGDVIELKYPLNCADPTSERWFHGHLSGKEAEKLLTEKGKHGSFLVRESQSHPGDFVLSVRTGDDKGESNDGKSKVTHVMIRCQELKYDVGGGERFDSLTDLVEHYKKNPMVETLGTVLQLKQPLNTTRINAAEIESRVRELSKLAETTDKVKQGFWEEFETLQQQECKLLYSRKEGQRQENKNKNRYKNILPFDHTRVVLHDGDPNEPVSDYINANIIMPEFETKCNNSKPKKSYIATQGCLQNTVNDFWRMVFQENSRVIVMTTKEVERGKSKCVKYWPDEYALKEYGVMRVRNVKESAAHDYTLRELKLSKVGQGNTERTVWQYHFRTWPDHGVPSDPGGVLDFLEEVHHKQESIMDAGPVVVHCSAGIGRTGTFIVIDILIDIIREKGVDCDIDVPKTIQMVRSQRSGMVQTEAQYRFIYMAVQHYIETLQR
Assay: SHP2 enzymatic assay (fluorescence intensity kinetic assay, DiFMUP hydrolysis)
Details: 1 nM His6-tagged SHP2(2-527), 1 μM activating peptide, 50 μM DiFMUP; single assay or mean of multiple assays; read-out: Biological Example 1 IC50
pIC50: −log10 of the molar value.
# label = Yes if pIC50 >= 7 else No

molecule	experimental target	classification
Nc1ccc(Oc2cnc(N3CCC4(CC3)Cc3ccccc3[C@H]4N)nn2)cn1 [Example 22]	full-length SHP2 (Homo sapiens)	Yes
Cc1nccc(Sc2cnc(N3CCC4(CC3)CO[C@@H](C)[C@H]4N)nn2)c1Cl [Example 14]	full-length SHP2 (Homo sapiens)	Yes
N[C@@H]1c2ccccc2CC12CCN(c1ncc(Sc3c[nH]c4ccccc34)nn1)CC2 [Example 69]	full-length SHP2 (Homo sapiens)	Yes
C[C@@H]1OCC2(CCN(c3ncc(Sc4ccnc(N)c4F)nn3)CC2)[C@@H]1N [Example 21]	full-length SHP2 (Homo sapiens)	No
N[C@@H]1c2ccccc2CC12CCN(c1ncc(Sc3ccnc4c3CCN4)nn1)CC2 [Example 70]	full-length SHP2 (Homo sapiens)	Yes
Nc1nccc(Sc2cnc(N3[C@H]4CC[C@H]3CC(N)C4)nn2)c1Cl (some centres unmarked) [Example 3]	full-length SHP2 (Homo sapiens)	No
C[C@@H]1OCC2(CCN(c3ncc(Sc4cccc(Cl)c4Cl)nn3)CC2)[C@@H]1N [Example 7]	full-length SHP2 (Homo sapiens)	Yes
Nc1nccc(Sc2cnc(N3CCC4(CC3)Cc3ccccc3[C@H]4N)nn2)c1C1CC1 [Example 19]	full-length SHP2 (Homo sapiens)	Yes
N[C@@H]1c2ccccc2CC12CCN(c1ncc(-c3ccccc3Cl)nn1)CC2 [Example 31]	full-length SHP2 (Homo sapiens)	Yes
Cc1ccc2c(c1)[C@@H](N)C1(CCN(c3ncc(Sc4ccnc(N)c4Cl)nn3)CC1)C2 [Example 45]	full-length SHP2 (Homo sapiens)	Yes
N[C@@H]1c2ccccc2CC12CCN(c1ncc(Oc3cnc4[nH]ccc4c3)nn1)CC2 [Example 72]	full-length SHP2 (Homo sapiens)	No
